Data origin: patent US20080262097A1

Readings of SDDA with TBHQ for the listed compounds
Tested on: P. acnes NCTC 737
ASSAY_PROTOCOL: Synergy disc diffusion assay (SDDA)
Assay type: cell-based, Propionibacterium acnes
RECORDED_CONDITIONS: peroxide combined with TBHQ on one disc, 200 μg of each

Illustrative cases are given below, each with its answer.
>>> df
                               compound      value_type  data_value
0    CC(C)(C)OO [t-butyl hydroperoxide]  SDDA with TBHQ    25.49 mm
1    [Ca+2].[O-][O-] [calcium peroxide]  SDDA with TBHQ    38.08 mm
2  [Mg+2].[O-][O-] [magnesium peroxide]  SDDA with TBHQ    37.45 mm

Proceeding to the next compound to report its SDDA with TBHQ.
Entry [Na+].[Na+].[O-][O-] [sodium peroxide] , SDDA with TBHQ reported as 22.66 mm
